# Assay system: T1, Sos site 2 peptide site 2 peptide (Drosophila melanogaster, UniProt P26675)
# T1 chain: GELSPPPIPPRL
# Protocol text: 19F NMR lineshape analysis, 4.2 °C
Measured parameter: Kd (µM)
Write the answer as a number in µM, unit excluded.

Q: Suppose we examine the binder Drk N-terminal SH3 domain N-terminal SH3 (protein) MEAIAKHDFSATADDELSFRKGQILKILNMEDDSNWYRAELDGKEGLIPSNYIEMKNH ; what Kd value has been reported?
Ans: 9
